This collection of values is drawn from patent US20230277630A1.

tested on: P-gp and BCRP; test: in vitro; settings: human, Caco-2, pH 7.4, BL-to-AP Papp of TUDCA
Property: Papp B→A at 16.2 µM

compound_smiles=C[C@H](CCC(=O)NCCS(=O)(=O)O)[C@H]1CC[C@H]2[C@@H]3[C@@H](O)C[C@@H]4C[C@H](O)CC[C@]4(C)[C@H]3CC[C@]12C property="Papp B→A at 16.2 µM" observed_value="0.553 ×10⁻⁶ cm/s"

----------
biological target: P-gp (Homo sapiens); experiment: P-gp IC50 assessment, bidirectional digoxin transport in C2BBe1 cells; conditions: human, pH 7.4
Sequence (P08183 whole entry): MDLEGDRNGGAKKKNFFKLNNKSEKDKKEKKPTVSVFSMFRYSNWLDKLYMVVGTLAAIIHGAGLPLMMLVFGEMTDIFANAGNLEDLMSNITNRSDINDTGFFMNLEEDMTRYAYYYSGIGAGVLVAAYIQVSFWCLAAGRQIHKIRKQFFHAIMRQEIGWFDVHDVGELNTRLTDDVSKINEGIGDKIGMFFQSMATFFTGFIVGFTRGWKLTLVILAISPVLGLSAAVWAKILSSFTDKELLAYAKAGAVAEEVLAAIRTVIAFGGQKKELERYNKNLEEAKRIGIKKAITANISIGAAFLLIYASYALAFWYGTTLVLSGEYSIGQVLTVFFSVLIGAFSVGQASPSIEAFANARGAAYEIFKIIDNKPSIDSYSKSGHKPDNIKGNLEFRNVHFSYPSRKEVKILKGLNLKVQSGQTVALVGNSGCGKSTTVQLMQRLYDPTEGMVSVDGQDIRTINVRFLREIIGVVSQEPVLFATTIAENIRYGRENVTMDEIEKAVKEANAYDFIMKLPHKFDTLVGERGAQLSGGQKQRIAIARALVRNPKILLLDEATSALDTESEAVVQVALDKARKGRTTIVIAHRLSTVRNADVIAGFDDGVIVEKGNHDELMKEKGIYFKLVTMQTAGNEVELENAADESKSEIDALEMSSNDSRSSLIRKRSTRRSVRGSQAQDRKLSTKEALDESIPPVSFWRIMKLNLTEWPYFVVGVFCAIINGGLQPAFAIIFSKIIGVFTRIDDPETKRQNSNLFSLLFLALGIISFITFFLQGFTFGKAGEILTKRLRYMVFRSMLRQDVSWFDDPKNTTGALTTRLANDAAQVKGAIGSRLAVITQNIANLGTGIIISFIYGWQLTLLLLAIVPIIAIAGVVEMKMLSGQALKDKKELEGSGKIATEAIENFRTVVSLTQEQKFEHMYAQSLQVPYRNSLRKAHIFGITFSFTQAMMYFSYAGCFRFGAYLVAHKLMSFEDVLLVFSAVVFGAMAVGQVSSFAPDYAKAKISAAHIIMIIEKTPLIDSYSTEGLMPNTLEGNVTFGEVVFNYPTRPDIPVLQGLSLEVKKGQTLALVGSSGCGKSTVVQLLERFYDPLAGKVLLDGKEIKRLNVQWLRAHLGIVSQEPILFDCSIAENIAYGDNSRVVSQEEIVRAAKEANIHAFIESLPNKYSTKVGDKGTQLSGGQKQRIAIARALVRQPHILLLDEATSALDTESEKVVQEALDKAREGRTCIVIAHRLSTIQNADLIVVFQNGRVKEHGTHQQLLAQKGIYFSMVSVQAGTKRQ
Property: inhibition at 1 μM (%)

molecule="C/C=C/C[C@@H](C)C(=O)[C@H]1C(=O)N[C@@H](C(C)C)C(=O)N(C)CC(=O)N(C)[C@@H](CC(C)C)C(=O)N[C@@H](C(C)C)C(=O)N(C)[C@@H](CC(C)C)C(=O)N[C@@H](C)C(=O)N[C@H](C)C(=O)N(C)[C@@H](CC(C)C)C(=O)N(C)[C@@H](CC(C)C)C(=O)N(C)[C@@H](C(C)C)C(=O)N1C [valspodar, reference compound]" observed_value=99.3

----------
molecular target: CYP2C8 (Homo sapiens); assay: Inhibition of CYP2C8 activity in human liver microsomes; format: in vitro ADME; set-up: co-incubated with pooled HLM (0.25 mg protein/mL); from tissue; host or cells: pooled human liver microsomes; settings: human, microsomes, pH 7.4
Sequence (P10632 whole entry): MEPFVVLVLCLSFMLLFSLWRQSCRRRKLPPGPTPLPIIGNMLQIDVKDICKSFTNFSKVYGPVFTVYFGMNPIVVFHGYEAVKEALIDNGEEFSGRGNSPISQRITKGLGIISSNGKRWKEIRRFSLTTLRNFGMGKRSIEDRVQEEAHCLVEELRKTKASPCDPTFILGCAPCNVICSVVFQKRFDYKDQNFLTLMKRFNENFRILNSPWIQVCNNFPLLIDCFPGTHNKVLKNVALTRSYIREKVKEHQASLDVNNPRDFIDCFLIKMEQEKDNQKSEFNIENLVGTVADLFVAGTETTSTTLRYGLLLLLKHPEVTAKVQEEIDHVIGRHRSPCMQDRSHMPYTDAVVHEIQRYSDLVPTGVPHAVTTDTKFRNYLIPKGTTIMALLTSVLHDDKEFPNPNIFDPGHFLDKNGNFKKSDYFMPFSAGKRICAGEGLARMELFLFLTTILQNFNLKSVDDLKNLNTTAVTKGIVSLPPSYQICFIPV
Property: activity at 3.33 μM (%)

compound="CC(C)(O)c1ccccc1CC[C@@H](SCC1(CC(=O)O)CC1)c1cccc(/C=C/c2ccc3ccc(Cl)cc3n2)c1 [Montelukast]" observed_value=14.6

----------
test system: P-gp and BCRP; test: P-gp and BCRP substrate assessment, bidirectional permeability in C2BBe1 cells; settings: human, Caco-2, pH 7.4, BL-to-AP Recovery, C2BBe1 cells, 10 μM probe, batch used with Sol_1, Sol_3, and Sol_4; Average
Property: recovery at 10 μM (%)

compound_smiles=C[C@H]1O[C@@H](O[C@H]2[C@@H](O)C[C@H](O[C@H]3[C@@H](O)C[C@H](O[C@H]4CC[C@@]5(C)[C@H](CC[C@@H]6[C@@H]5C[C@@H](O)[C@]5(C)[C@@H](C7=CC(=O)OC7)CC[C@]65O)C4)O[C@@H]3C)O[C@@H]2C)C[C@H](O)[C@@H]1O property="recovery at 10 μM" measurement_units=% observed_value=87.4

----------
system: P-gp and BCRP; assay: P-gp and BCRP substrate assessment, bidirectional permeability in C2BBe1 cells; settings: human, Caco-2, pH 7.4, AP-to-BL Recovery, C2BBe1 cells, 10 μM probe, batch used with Sol_1, Sol_3, and Sol_4; single replicates
Property: recovery at 10 μM (%)

compound_smiles=C[C@H]1O[C@@H](O[C@H]2[C@@H](O)C[C@H](O[C@H]3[C@@H](O)C[C@H](O[C@H]4CC[C@@]5(C)[C@H](CC[C@@H]6[C@@H]5C[C@@H](O)[C@]5(C)[C@@H](C7=CC(=O)OC7)CC[C@]65O)C4)O[C@@H]3C)O[C@@H]2C)C[C@H](O)[C@@H]1O observed_value=90.9

----------
tested on: P-gp and BCRP; test: in vitro; details: human, Caco-2, pH 7.4, BL-to-AP Papp, C2BBe1 cells, 10 μM probe, batch used with Sol_2; Average
Property: Papp B→A at 10 µM (×10⁻⁶ cm/s)

compound_smiles=Nc1nc(Cl)nc2c1ncn2[C@H]1C[C@H](O)[C@@H](CO)O1 measurement_units="×10⁻⁶ cm/s" observed_value=12.8
